# method: Solubility of 5′-guanylic acid in aqueous sodium chloride solutions (saturated mixed solution, supernatant concentration)
# conditions-used: aqueous sodium chloride solution, 40 °C, saline or isotonic, 5′-Guanylic acid concentration (g/L) in mixed solution; sodium chloride concentration 160 g/L; supernatant of saturated solution
readout: solubility thermodynamic (mg/mL)
The response must be a number in mg/mL with no trailing unit.

-- ask Report solubility thermodynamic, nothing else, for this compound: `Nc1nc2c(ncn2[C@@H]2O[C@H](COP(=O)(O)O)[C@@H](O)[C@H]2O)c(=O)[nH]1`
-- reply 86.5

----------
# method: Solubility of 5′-guanylic acid in aqueous sodium chloride solutions (saturated mixed solution, supernatant concentration)
# conditions-used: aqueous sodium chloride solution, 25 °C, saline or isotonic, Concentration of 5′-Guanylic acid in mixed solution (g/L); sodium chloride concentration 200 g/L; supernatant of saturated solution
readout: solubility thermodynamic (mg/mL)
The response must be a number in mg/mL with no trailing unit.

-- ask Report solubility thermodynamic, nothing else, for this compound: `Nc1nc2c(ncn2[C@@H]2O[C@H](COP(=O)(O)O)[C@@H](O)[C@H]2O)c(=O)[nH]1`
-- reply 26.4

----------
# method: Solubility of 5′-guanylic acid in aqueous sodium chloride solutions (saturated mixed solution, supernatant concentration)
# conditions-used: aqueous sodium chloride solution, 25 °C, saline or isotonic, Concentration of 5′-Guanylic acid in mixed solution (g/L); sodium chloride concentration 280 g/L; supernatant of saturated solution
readout: solubility thermodynamic
Please state the value followed by its unit.

-- ask Report solubility thermodynamic, nothing else, for this molecule: `Nc1nc2c(ncn2[C@@H]2O[C@H](COP(=O)(O)O)[C@@H](O)[C@H]2O)c(=O)[nH]1`
-- reply 19.2 mg/mL

----------
# method: Solubility of 5′-guanylic acid in aqueous sodium chloride solutions (saturated mixed solution, supernatant concentration)
# conditions-used: aqueous sodium chloride solution, 25 °C, saline or isotonic, Concentration of 5′-Guanylic acid in mixed solution (g/L); sodium chloride concentration 160 g/L; supernatant of saturated solution
readout: solubility thermodynamic (mg/mL)
The response must be a number in mg/mL with no trailing unit.

-- ask Report solubility thermodynamic, nothing else, for this compound: `Nc1nc2c(ncn2[C@@H]2O[C@H](COP(=O)(O)O)[C@@H](O)[C@H]2O)c(=O)[nH]1`
-- reply 40.1

----------
# method: Solubility of 5′-guanylic acid in aqueous sodium chloride solutions (saturated mixed solution, supernatant concentration)
# conditions-used: aqueous sodium chloride solution, 40 °C, saline or isotonic, 5′-Guanylic acid concentration (g/L) in mixed solution; sodium chloride concentration 230 g/L; supernatant of saturated solution
readout: solubility thermodynamic (mg/mL)
The response must be a number in mg/mL with no trailing unit.

-- ask Report solubility thermodynamic, nothing else, for this compound: Nc1nc2c(ncn2[C@@H]2O[C@H](COP(=O)(O)O)[C@@H](O)[C@H]2O)c(=O)[nH]1 [5′-Guanylic acid, 5′-guanylic acid]
-- reply 57.1
